B1: KRT15 (parent)
chain: FGGGSTRGGSLLAGGGGFGGGSLS

Variants of: B1
Assay: protein stability index of a GFP-peptide fusion (GPS, HEK-293T) (PSI 1-6); higher = more stable;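 also: lentivirally expressed fusions sorted by FACS into six bins by GFP to DsRed ratio, PSI derived from sequencing read proportions per bin multiplied by bin number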
Conditions: c terminus: a fixed tail appended
Readout Name: protein stability index

Examples with answers:
1) R7K :: 2.32
2) G16T :: 1.09

Quick one: give me protein stability index for each item below, same order please.
1. G19S
2. A13H
3. G3D
4. T6E
5. G8F
6. G16Y
7. S24T
8. G17M

Key:
2.06
2.53
1.32
1.62
3.67
1.9
2.51
1.07
